- experimentalSystem: human renin (Homo sapiens, UniProt P00797)
- Sequence (P00797 67-406): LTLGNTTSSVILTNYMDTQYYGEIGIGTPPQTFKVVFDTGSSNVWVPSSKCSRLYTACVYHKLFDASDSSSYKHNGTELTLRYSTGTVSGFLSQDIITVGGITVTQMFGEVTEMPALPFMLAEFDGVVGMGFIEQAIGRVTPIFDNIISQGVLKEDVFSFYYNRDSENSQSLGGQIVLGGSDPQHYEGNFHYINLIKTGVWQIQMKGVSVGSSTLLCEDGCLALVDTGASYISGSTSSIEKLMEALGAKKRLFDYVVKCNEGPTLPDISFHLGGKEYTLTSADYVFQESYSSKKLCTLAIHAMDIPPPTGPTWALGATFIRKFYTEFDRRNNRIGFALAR
- method: Human renin-sheep renin substrate reaction system in vitro
- Assay type: biochemical
- measurementParameters: purified human renin, semipurified sheep renin substrate, pH 7.4, 37° C., 15 minutes
Field: IC50. Provide a value for each of the compounds that follow.
Please make sure the unit comes right after the number.

The following compounds each have a reported value; give each one's IC50.
1. CC(C)C[C@H](NC(=O)C(CC(=O)N1CCOCC1)Cc1cccc2ccccc12)C(=O)N[C@@H](CC(C)C)C(O)C(=O)OC(C)C (stereo partly drawn)
2. COC(=O)CN(C)C(=O)CC(Cc1cccc2ccccc12)C(=O)N[C@@H](C)C(=O)N[C@@H](CC(C)C)C(O)C(=O)OC(C)C (stereo partly drawn)
3. COC(=O)C(O)[C@H](CC(C)C)NC(=O)[C@H](CC(C)C)NC(=O)C(CC(=O)N1CCOCC1)Cc1cccc2ccccc12 (mixture of isomers)

1. 0.014 µM
2. 0.015 µM
3. 0.03 µM

###

- experimentalSystem: human renin (Homo sapiens)
- method: Human renin-sheep renin substrate reaction system in vitro
- Format: biochemical
- measurementParameters: purified human renin, semipurified sheep renin substrate, pH 7.4, 37° C., 15 minutes
quantityKind: log10 IC50 (log10 of the value in µM)
# values: log10(IC50), units µM

Below are worked cases with known answers.
// recorded log10 IC50 for COC(=O)[C@@H]1CCCN1C(=O)CC(Cc1cccc2ccccc12)C(=O)N[C@@H](C)C(=O)N[C@@H](CC(C)C)C(O)C(=O)OC(C)C (stereo partly drawn) : -1.23

// recorded log10 IC50 for CC(C)C[C@H](NC(=O)CNC(=O)C(CC(=O)N1CCOCC1)Cc1cccc2ccccc12)C(O)C(=O)OC(C)C (stereo partly drawn) : -0.41

// recorded log10 IC50 for CC(C)C[C@H](NC(=O)CCNC(=O)C(CC(=O)N1CCOCC1)Cc1cccc2ccccc12)C(O)C(=O)OC(C)C (stereo partly drawn) : -0.89

The following compounds each have a reported value; give each one's log10 IC50.
1. CC(C)C[C@H](NC(=O)[C@H](CO)NC(=O)C(CC(=O)N1CCOCC1)Cc1cccc2ccccc12)C(O)C(=O)OC(C)C (stereo partly drawn)
2. CC(C)C[C@H](NC(=O)[C@H](Cc1c[nH]c2ccccc12)NC(=O)C(CC(=O)N1CCOCC1)Cc1cccc2ccccc12)C(O)C(=O)OC(C)C (stereo partly drawn)
3. CC(C)C[C@H](NC(=O)[C@H](Cc1ccccc1)NC(=O)C(CC(=O)N1CCOCC1)Cc1cccc2ccccc12)C(O)C(=O)OC(C)C (stereo partly drawn)

1. -1.59
2. -0.54
3. -1.32
